Just for reference, ChEMBL document CHEMBL3988442 is where these values come from.

A collection of molecules and their measured Percent Effect
Target: AMP-activated protein kinase, AMPK (Homo sapiens) (UniProt P54646+O43741+P54619+Q9UGJ0+Q9Y478+Q13131+Q9UGI9)
Assay: AMP-dependent Kinase enzyme assay. An in vitro enzyme assay that detects ADP turnover that is directly proportional to AMPK activity. This uses naive AMPK that is activated during the assay with MK-8722
Type: functional
Design: scale not given: direction of the effect not stated beside the values
Conditions: 30 µM
Write down the numeric answer in % and omit the unit.

Worked examples follow.
[[record]]
molecule = "CCc1ncncc1C(=O)N1CCCN(Cc2ccc(C)cc2)CC1"
outcome_measure = "Percent Effect"
obs_value = 1.25

[[record]]
molecule = "COCCN1CCC(CN(CC2CCCO2)C(=O)CCNC(C)=O)CC1 (centres undefined)"
outcome_measure = "Percent Effect"
obs_value = -2.84

[[record]]
molecule = "CCN1CCC(NC(=O)CN2CCc3c(nc(C4CC4)n3C)C2)CC1"
outcome_measure = "Percent Effect"
obs_value = -9.14

[[record]]
molecule = "O=C(COc1coc(CN2CCCCC2)cc1=O)NCc1ccccc1"
outcome_measure = "Percent Effect"
obs_value = 6.63

[[record]]
molecule = "O=C(NCCN1CCNCC1)c1nc2ccccc2c(=O)[nH]1"
outcome_measure = "Percent Effect"
obs_value = 2.04


Query string: Please give measured Percent Effect of the following entry: Cn1c(CN2CCCC2)nnc1C1CCCN(C(=O)C2CCOCC2)C1 (centres undefined)
Result string: -5.63

Query string: Please give measured Percent Effect of the following entry: COc1cc(CNCc2ccc(C(C)O)cc2)cc2c1OCO2 (centres undefined)
Result string: 2.1

Query string: Please give measured Percent Effect of the following entry: Cc1ccc2cc(CNCCCN3CCOCC3)c(=O)[nH]c2c1
Result string: 11.3

Query string: Please give measured Percent Effect of the following entry: CCCC(C)C(=O)NCc1cn2cc(Br)ccc2n1 (centres undefined)
Result string: 5.33

====

A collection of molecules and their measured Percent Effect
Species on record: Homo sapiens
Test: To identify inhibition of the IFN signalling (Jak-Stat) pathway via expression of an eGFP reporter gene under the control of an IFN-stimulated response element (ISRE) containing MxA promoter.
Assay type: functional
Design: scale not given: direction of the effect not stated beside the values
Details: 30 µM
Write down the numeric answer in % and omit the unit.

[[record]]
molecule = "CN(C)[C@@H]1CN(Cc2ccoc2)C[C@@H]2CCCO[C@@H]21"
obs_value = -2.15


Query string: Please give measured Percent Effect of the following entry: Cn1ccc(C(=O)NCc2ccc(N3CCCC3)nc2)cc1=O
Result string: 21.7

Query string: Please give measured Percent Effect of the following entry: Cc1cnc(CN2CCC(N(C)Cc3nnc(C4CC4)n3C)C2)cn1 (centres undefined)
Result string: -19.5

Query string: Please give measured Percent Effect of the following entry: CC(C(=O)NCc1ccnc(N2CCCC2)c1)n1cncn1 (centres undefined)
Result string: 26.8

Query string: Please give measured Percent Effect of the following entry: CCn1c(C)nnc1CN(C)C1CCN(CCCOC)C1 (centres undefined)
Result string: -2.93

Query string: Please give measured Percent Effect of the following entry: Cc1ccc(C(NC(=O)[C@H]2CC[C@@H](O)CC2)c2cccnc2)cc1C (some centres undefined)
Result string: -9.12

====

Biological target: Arginase-2, mitochondrial (Homo sapiens)
Test: in vitro enzyme assay to detect the production of urea directly proportional to the activity of Arginase II; also: in the data most compounds retested in dose-response had high values
Assay type: functional
Set-up: scale not given: direction of the effect not stated beside the values
Conditions: 33.3 µM
outcome-measure: Percent Effect (%)
Write down the numeric answer in % and omit the unit.

Worked examples follow.
[[record]]
molecule = "Cc1[nH]/c(=N\\C(=O)c2csc(NC3CC3)n2)sc1C"
obs_value = -1.75

[[record]]
molecule = "C[C@@H]1CN(C2(C(=O)N3CCOCC3)Cc3ccccc3C2)C[C@H](C)O1"
obs_value = 1.77

[[record]]
molecule = "O=C(O)c1nnn(-c2ccc(OC(F)(F)F)cc2)c1-c1ccncc1"
obs_value = 3.55

[[record]]
molecule = "CC(C)c1nc(CN2CCCN(Cc3nnc(C4CC4)o3)CC2)no1"
obs_value = 4.43

[[record]]
molecule = "CCOCCCn1c(NC(=O)c2ccc(C)nc2)nc2ccccc21"
obs_value = 0


Query string: Please give measured Percent Effect of the following entry: O=C([C@H]1C[C@H]2OCC[C@H]2N(C(=O)c2ccncc2)C1)N1CCCCO1
Result string: -43.9

Query string: Please give measured Percent Effect of the following entry: CCc1[nH]ncc1C(=O)N1CCCN(Cc2cnn(C(C)C)c2)CC1
Result string: -18

Query string: Please give measured Percent Effect of the following entry: CCOCCN1CCn2c(C)nnc2C1
Result string: -3.23

Query string: Please give measured Percent Effect of the following entry: COc1ccc(CC(=O)N2CCCN(c3ccc(C#N)cc3)CC2)cc1
Result string: -8.28

Query string: Please give measured Percent Effect of the following entry: Cc1nc(N2CCCCC2)ncc1C(=O)N1CC(C)(C)[C@@](C)(O)C1
Result string: 4.22

Query string: Please give measured Percent Effect of the following entry: Cc1nc(C)n(C2CCCN(C(=O)Cc3cccnc3)C2)n1 (configuration not stated)
Result string: 2.5

Query string: Please give measured Percent Effect of the following entry: COc1cc(NC(=O)Cn2ccc3sc(C)cc3c2=O)cc(OC)c1
Result string: 17.4

Query string: Please give measured Percent Effect of the following entry: COCCN1C(=O)CC(N2CCN(c3ccc(F)cc3)CC2)C1=O (configuration not stated)
Result string: -1.18

Query string: Please give measured Percent Effect of the following entry: CC(=O)N1CCO[C@@H]2CN(C(=O)c3cc(C)oc3C)CC[C@@H]2C1
Result string: 0.319

Query string: Please give measured Percent Effect of the following entry: CN1CCN(c2cc(CNC(=O)c3ccc(=O)n(C)c3)ccn2)CC1
Result string: 2.87

Query string: Please give measured Percent Effect of the following entry: COc1cccc(CN(C)C(=O)CN2CCN(c3nccn3C)CC2)c1
Result string: 14.1

Query string: Please give measured Percent Effect of the following entry: O=C(c1ccoc1)N1CCCn2cnc(COCC3CC3)c2C1
Result string: 9.24

Query string: Please give measured Percent Effect of the following entry: CC(C)c1cc(NC(=O)CN2CCC(N3CCNC3=O)CC2)on1
Result string: 1.02

Query string: Please give measured Percent Effect of the following entry: Cc1cnn(C(C)C2CC2)c1NC(=O)c1ccncc1 (configuration not stated)
Result string: 1.75

Query string: Please give measured Percent Effect of the following entry: O=C(NCCOc1cccc(Cl)c1)C1CC(=O)N(CC2CC2)C1 (configuration not stated)
Result string: 4.32

Query string: Please give measured Percent Effect of the following entry: Cc1nc(NC(=O)CN2CCc3c(nc(C(C)C)n3C)C2)sc1C
Result string: -1.43

====

Species on record: Homo sapiens
Assay: To identify inhibition of the IFN signalling (Jak-Stat) pathway via expression of an eGFP reporter gene under the control of an IFN-stimulated response element (ISRE) containing MxA promoter.
Format: functional
Parameters: scale not given: direction of the effect not stated beside the values
Conditions: 30 µM
outcome-measure: Percent Effect (%)
Write down the numeric answer in % and omit the unit.

Worked examples follow.
[[record]]
molecule = "O=S(=O)(N1CCCC1)N1CCCCC1CCc1ccccc1 (stereo unspecified)"
outcome_measure = "Percent Effect"
obs_value = 25.4

[[record]]
molecule = "CC(C)c1ccc(O)c(C(=O)N2CCN(Cc3cscn3)CC2)c1"
outcome_measure = "Percent Effect"
obs_value = 26.8

[[record]]
molecule = "CN(C(=O)c1ccccn1)c1nc2c(s1)CCc1c-2cnn1C"
outcome_measure = "Percent Effect"
obs_value = 16.9

[[record]]
molecule = "CCN(Cc1ccccc1)C(=O)CN1CCCC(Cn2cncn2)C1 (stereo unspecified)"
outcome_measure = "Percent Effect"
obs_value = -4.88

[[record]]
molecule = "CCNC(=O)N1CCN(Cc2nc3ccccc3[nH]2)[C@@H]2CS(=O)(=O)C[C@@H]21"
outcome_measure = "Percent Effect"
obs_value = 1.54


Query string: Please give measured Percent Effect of the following entry: CCO[C@@H]1CO[C@@]2(CCCN(S(=O)(=O)c3cccnc3)C2)C1
Result string: 6.27

Query string: Please give measured Percent Effect of the following entry: CCc1nccn1C1CCCN(C(=O)Cc2n[nH]c3ccccc23)C1 (stereo unspecified)
Result string: 1.26

Query string: Please give measured Percent Effect of the following entry: Cc1noc(C)c1C(=O)NCc1ccnc(OCC(F)(F)F)c1
Result string: 10.2

Query string: Please give measured Percent Effect of the following entry: CNC(=O)CS(=O)(=O)Cc1coc(-c2ccc(OC)cc2)n1
Result string: 7.16

Query string: Please give measured Percent Effect of the following entry: COCCn1ccnc1C1CCCN(C(=O)CSCC2CC2)C1 (stereo unspecified)
Result string: 1.07

Query string: Please give measured Percent Effect of the following entry: Cc1nccc(-c2cccc(NCC(=O)N3CCCCCCC3)c2)n1
Result string: 28.6
